target_desc: RFC WB-EA (Walker B Glu to Ala quadruple mutant);PCNA (Saccharomyces cerevisiae;Saccharomyces …, UniProt P38630;P40348;P38629;P40339;P38251;P15873 284-861;1-353;1-340;1-323;1-354;1-258, E425A;E141A;E118A;E115A|)
experimental_protocol: fluorescence anisotropy; 0.5 mM ATPgS; 2 uM PCNA; 20 nM p/t DNA-RhX, 0.5 mM ATPgS, varied RFC, with or without 2 uM PCNA; buffer, salt, pH and temperature not in the material (Section 3.1 text missing)
assay_conditions: protein: recombinant;recombinant; tags: Rfc1 N-terminal 6xHis and kinase recognition motif replacing residues 1-283;; copies: 1;1;1;1;1;3; label: X-rhodamine (RhX) on 5' end of template; primer-template: 26 bp duplex with 34 nt 5' template overhang
pKd: −log10 of the molar value.
quantity_name: pKd

binder="p/t DNA-RhX (26/60-mer primed template) (dsDNA, 5' C6 amino linker on the 60-mer template) DNA 1: TTCAGGTCAGAAGGGTTCTATCTCTGTTGGCCAGAATGTCCCTTTTATTACTGGTCGTGT DNA 2: ACACGACCAGTAATAAAAGGGACATT" val=5.74
